Target Desc: human PTP1B (Homo sapiens, UniProt P18031)
Construct: human PTP1B (amino acid residues 1-321); made in house; host or cells: E. coli BL21(DE3)
Sequence (P18031 1-321): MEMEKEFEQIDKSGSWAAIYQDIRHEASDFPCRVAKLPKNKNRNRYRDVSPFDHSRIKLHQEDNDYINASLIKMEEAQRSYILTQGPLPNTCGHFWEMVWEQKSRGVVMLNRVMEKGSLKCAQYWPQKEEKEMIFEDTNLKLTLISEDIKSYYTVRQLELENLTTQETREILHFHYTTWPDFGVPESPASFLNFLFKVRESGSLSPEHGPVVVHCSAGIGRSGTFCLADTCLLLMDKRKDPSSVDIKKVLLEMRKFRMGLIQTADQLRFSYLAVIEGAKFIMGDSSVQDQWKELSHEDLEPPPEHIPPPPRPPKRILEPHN
Assay Comment: PTP1B assay, pNPP hydrolysis, assayed exactly as for PTP1
Format: biochemical
Experimental Context: Conc 1 uM, Table 2, read-out: PTP1B Inhib PTP1B. % Inhib
Experimental Endpoint: inhibition at 1 µM (%)
Output spec: scalar in %, unitless text.

Prompt: Let me know recorded inhibition at 1 µM for CCCCCNC(=O)C(Cc1ccc(OC(COO)COO)cc1)NC(=O)C(Cc1c(F)c(F)c(F)c(F)c1F)NC(=O)OC(C)(C)C (stereo not drawn) , thanks.
Response: 5

Prompt: Let me know recorded inhibition at 1 µM for CCCCCNC(=O)C(Cc1ccc(OCCOO)c(COO)c1)NC(=O)C(Cc1ccccc1)NC(=O)Cc1cccc(O)c1 (stereo not drawn) , thanks.
Response: 43

Prompt: Let me know recorded inhibition at 1 µM for CCCCCNC(=O)C(Cc1ccc(OCCOO)c(COO)c1)NC(=O)C(Cc1ccccc1)NC(=O)CCCc1ccccc1 (stereo not drawn) , thanks.
Response: 19

###

Target Desc: human PTP1B (Homo sapiens, UniProt P18031)
Construct: human PTP1B (amino acid residues 1-321); made in house; host or cells: E. coli BL21(DE3)
Assay Comment: PTP1B assay, pNPP hydrolysis, assayed exactly as for PTP1
Format: biochemical
Experimental Context: Conc 1 uM, Table 2, read-out: PTP1B Inhib PTP1B. % Inhib
Give inhibition at 1 µM for every item shown.
Output spec: scalar in %, unitless text.

Prompt: Give reported inhibition at 1 µM for CCCCCNC(=O)C(Cc1ccc(OCCOO)c(COO)c1)NC(=O)C(Cc1ccccc1)NC(=O)Cc1ccc(O)cc1 (stereo not shown) (human PTP1B (Homo sapiens, UniProt P18031))
Response: 46

Prompt: Give reported inhibition at 1 µM for CCCCCNC(=O)C(Cc1ccc(OCCOO)c(COO)c1)NC(=O)C(Cc1ccccc1)NC(=O)Cc1ccc(OC)cc1 (stereo not shown) (human PTP1B (Homo sapiens, UniProt P18031))
Response: 46

Prompt: Give reported inhibition at 1 µM for CCCCCNC(=O)C(Cc1ccc(OCCOO)c(COO)c1)NC(=O)C(Cc1ccccc1)NC(=O)CCC(=O)O (stereo not shown) (human PTP1B (Homo sapiens, UniProt P18031))
Response: 64

Prompt: Give reported inhibition at 1 µM for CCCCCNC(=O)C(Cc1ccc(OC(COO)COO)cc1)NC(=O)C(CCCCNC(=O)OCc1ccccc1)NC(=O)OC(C)(C)C (stereo not shown) (human PTP1B (Homo sapiens, UniProt P18031))
Response: 6

###

Target Desc: rat PTP1 (Rattus norvegicus)
Construct: a C-terminal truncation of rat PTP1 (amino acid residues 1-322); GST (N, cleaved yes); made in house; host or cells: E. coli strain TG-1 (pGEX-2T)
Sequence (P20417 1-322): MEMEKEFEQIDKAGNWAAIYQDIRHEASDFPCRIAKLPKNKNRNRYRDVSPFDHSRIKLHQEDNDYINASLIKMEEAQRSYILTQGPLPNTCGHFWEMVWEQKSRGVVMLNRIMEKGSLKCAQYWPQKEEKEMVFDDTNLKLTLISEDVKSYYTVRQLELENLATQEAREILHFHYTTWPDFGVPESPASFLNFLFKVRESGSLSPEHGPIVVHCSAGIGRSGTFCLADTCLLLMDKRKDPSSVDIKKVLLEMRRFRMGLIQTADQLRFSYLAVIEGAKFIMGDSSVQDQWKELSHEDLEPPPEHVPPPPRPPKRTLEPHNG
Assay Comment: PTP1 assay, pNPP hydrolysis (rate of change in A405)
Assay type: biochemical
Experimental Context: inhibition of pNPP-hydrolysis; compound concentration 100 μM; read-out: % Inhibition
Experimental Endpoint: inhibition at 100 µM

Prompt: Give reported inhibition at 100 µM for CC(C)(C)OC(=O)N[C@@H](Cc1ccccc1)C(=O)N[C@@H](Cc1ccc(OCC(=O)O)c(C(=O)O)c1)C(=O)NCc1cccnc1 (rat PTP1 (Rattus norvegicus))
Response: 94%

Prompt: Give reported inhibition at 100 µM for COc1ccc(CCCCNC(=O)[C@H](Cc2ccc(OCC(=O)O)c(C(=O)O)c2)NC(=O)c2ccc(Cl)nc2)cc1 (rat PTP1 (Rattus norvegicus))
Response: 96%

Prompt: Give reported inhibition at 100 µM for CCCCCNC(=O)[C@H](Cc1ccc(OCC(=O)O)c(C(=O)O)c1)NC(=O)[C@H](Cc1ccccc1)NC(=O)Oc1ccccc1 (rat PTP1 (Rattus norvegicus))
Response: 97%

Prompt: Give reported inhibition at 100 µM for CC(C)(C)OC(=O)N[C@@H](Cc1ccccc1)C(=O)N[C@@H](Cc1ccc(OCC(=O)O)c(C(=O)O)c1)C(=O)NCCCCc1ccccc1 (rat PTP1 (Rattus norvegicus))
Response: 98%

Prompt: Give reported inhibition at 100 µM for CC(C)(C)OC(=O)N[C@@H](Cc1ccccc1)C(=O)N[C@@H](Cc1ccc(OCC(=O)O)c(C(=O)O)c1)C(=O)NCCCO (rat PTP1 (Rattus norvegicus))
Response: 95%

Prompt: Give reported inhibition at 100 µM for O=C(O)COc1ccc(C[C@H](NS(=O)(=O)c2ccccc2)C(=O)NCCCOc2ccccc2)cc1C(=O)O (rat PTP1 (Rattus norvegicus))
Response: 95%

Prompt: Give reported inhibition at 100 µM for CC(C)OCCCNC(=O)[C@H](Cc1ccc(OCC(=O)O)c(C(=O)O)c1)NC(=O)[C@H](Cc1ccccc1)NC(=O)OC(C)(C)C (rat PTP1 (Rattus norvegicus))
Response: 97%

Prompt: Give reported inhibition at 100 µM for O=C(O)COc1ccc(C[C@H](NC(=O)c2cccnc2)C(=O)NCCCCc2ccccc2)cc1C(=O)O (rat PTP1 (Rattus norvegicus))
Response: 95%

Prompt: Give reported inhibition at 100 µM for O=C(O)COc1ccc(C[C@H](NS(=O)(=O)c2ccc(F)cc2F)C(=O)NCCCCc2ccc(Cl)cc2)cc1C(=O)O (rat PTP1 (Rattus norvegicus))
Response: 95%

Prompt: Give reported inhibition at 100 µM for CC(C)(C)OC(=O)N[C@@H](Cc1ccccc1)C(=O)N[C@@H](Cc1ccc(OCC(=O)O)c(C(=O)O)c1)C(=O)NCCCc1ccccc1 (rat PTP1 (Rattus norvegicus))
Response: 97%

Prompt: Give reported inhibition at 100 µM for O=C(O)COc1ccc(C[C@H](NC(=O)c2ccccc2)C(=O)NCCCCc2ccccc2)cc1C(=O)O (rat PTP1 (Rattus norvegicus))
Response: 97%

Prompt: Give reported inhibition at 100 µM for CC(C)(C)OC(=O)N[C@@H](Cc1ccccc1)C(=O)N[C@H](Cc1ccc(OCC(=O)O)c(C(=O)O)c1)C(=O)NCCCN1CCCC1=O (rat PTP1 (Rattus norvegicus))
Response: 95%

Prompt: Give reported inhibition at 100 µM for CC(C)(C)OC(=O)N[C@@H](Cc1ccccc1)C(=O)N[C@H](CO)Cc1ccc(OCC(=O)O)c(C(=O)O)c1 (rat PTP1 (Rattus norvegicus))
Response: 80%
